The values you see were collected from patent US20230233569A1.

Target: NRAS G12C (Homo sapiens, UniProt P01111+P62937, G12C)
Sequence (P01111 whole entry G12C): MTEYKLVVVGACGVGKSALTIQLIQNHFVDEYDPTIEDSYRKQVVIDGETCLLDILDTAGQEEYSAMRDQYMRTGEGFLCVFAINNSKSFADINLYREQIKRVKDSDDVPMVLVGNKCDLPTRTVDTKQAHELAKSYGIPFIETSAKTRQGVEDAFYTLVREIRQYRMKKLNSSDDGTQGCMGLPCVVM
Sequence (P62937 whole entry): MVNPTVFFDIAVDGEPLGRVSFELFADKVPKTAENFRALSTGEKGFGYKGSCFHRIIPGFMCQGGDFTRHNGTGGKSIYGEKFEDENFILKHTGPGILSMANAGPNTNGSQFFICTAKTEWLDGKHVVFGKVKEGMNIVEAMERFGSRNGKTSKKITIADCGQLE
Assay: Disruption of BRAF RBD interaction with Ras (FRET / MOA assay, with Cyclophilin A)
Assay type: biochemical
Settings: NRAS G12C; read-out: NRAS G12C FRET data IC50
From the text: This protocol may also be executed substituting other Ras proteins or nucleotides. The purpose of this biochemical assay was to measure the ability of test compounds to facilitate ternary complex formation between a nucleotide-loaded K-Ras isoform and Cyclophilin A; the resulting ternary complex disrupts binding to a BRAF^RBD construct, inhibiting K-Ras signaling through a RAF effector. Data is reported as IC50 values. […]
Overview of reported IC50 across a group of molecules:

MOLECULE: CCn1c(-c2cccnc2[C@H](C)OC)c2c3cc(ccc31)-c1csc(n1)C[C@H](NC(=O)[C@H](C(C)C)N(C)C(=O)N1CC3(CC(O)C3)C1)C(=O)N1CCC[C@H](N1)C(=O)OCC(C)(C)C2 (atropisomer, axis not shown)
IC50: 10 to 100 nM

MOLECULE: CCn1c(-c2cccnc2[C@H](C)OC)c2c3cc(ccc31)-c1cc(O)cc(c1)C[C@H](NC(=O)[C@H](C(C)C)N(C)C(=O)C1CC13CCNC3)C(=O)N1CCC[C@H](N1)C(=O)OCC(C)(C)C2 (stereo partly shown)
IC50: 10 to 100 nM

MOLECULE: CCn1c(-c2cccnc2[C@H](C)OC)c2c3cc(ccc31)-c1csc(n1)C[C@H](NC(=O)[C@H](C(C)C)N(C)C(=O)N1[C@@H](C)CN(C)C[C@@H]1C)C(=O)N1CCC[C@H](N1)C(=O)OCC(C)(C)C2
IC50: 100 to 1000 nM

MOLECULE: CCn1c(-c2cccnc2[C@H](C)OC)c2c3cc(ccc31)-c1cc(O)cc(c1)C[C@H](NC(=O)[C@H](C(C)C)N(C)C(=O)C1(CO)CC1)C(=O)N1CCC[C@H](N1)C(=O)OCC(C)(C)C2
IC50: 100 to 1000 nM
